Listed compounds paired with reported IC50
# system: BIR3 domain of human XIAP (residues 252-350) (Homo sapiens (Human))
# Sequence (P98170 252-350): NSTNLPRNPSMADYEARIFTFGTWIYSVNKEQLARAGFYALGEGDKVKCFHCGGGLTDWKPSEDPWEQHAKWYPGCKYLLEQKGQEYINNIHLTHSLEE
# assay_summary: XIAP in vitro competitive displacement binding assay (fluorescence polarization)
# run_conditions: read-out: IC50 or PI Xiap: IC50
Structures can show the parent of a compound that is named as a salt.
Answer with a number only, understood to be in nM.

Observe how each entry below is paired with its result.
COC[C@H]1CN[C@H](C)CN1CC(=O)N1CC(C)(C)c2cnc(Cc3ccc(F)cc3F)cc21 [Example 105, hydrochloride salt] = 190
C[C@@H]1CN(CC(=O)N2CC(C)(C)c3ccc(Cl)cc32)[C@@H](CO)CN1 [Example 40, hydrochloride salt] = 960
C[C@@H]1CN(CC(=O)N2CCc3cccnc32)CCN1 [Example 36, dihydrochloride salt] = 240000

Now take the following compound into account.
Which measured IC50 value corresponds to CCCC(F)(F)c1cnc2c(c1)N(C(=O)CN1C[C@@H](C)NC[C@@H]1CN1CC[C@@H](F)C1)CC2(C)C [Example 223, hydrochloride] ? 120
